The reported measurements were obtained from ChEMBL document CHEMBL5303304.

# Tested on: Fibroblast
# procedureText: Incucyte cell viability with human fibroblast; note: unitless GR value; below 1 slowed growth and below 0 cell loss
# Assay type: toxicity, cell-based
# conditionSet: 6 h, 10 µM, compound concentration 10 uM, replicate number 1
measurementKind: Growth Rate

Ask: Growth Rate of CC(=O)O.NCCCc1c(C(=O)O)[nH]c2ccc(C(=O)Nc3ccccc3)cc12 on Fibroblast?
Reply: 0.95

Ask: Report Growth Rate for C[C@]12CC[C@H](O)CC1=CC[C@@H]1[C@@H]2CC[C@]2(C)C(n3cnc4ccccc43)=CC[C@@H]12 tested on Fibroblast.
Reply: 0.94

Ask: Hello, I am looking for reported Growth Rate with Fibroblast for Cc1nnsc1C(=O)Nc1ccc(-n2nc(C(F)(F)F)cc2C(F)(F)F)cc1 . Could you help?
Reply: 0.37

Ask: Lab request: please report Growth Rate under test system Fibroblast for CN(C)[C@H]1CC[C@H](Nc2ncc3ncnc(Nc4ccc(F)c(Cl)c4)c3n2)CC1
Reply: 0.74

Ask: Which Growth Rate is reported with Fibroblast for this entry: CN1CCC(F)(Cn2cnc(-c3ccc(F)cn3)c2-c2ccnc3[nH]ccc23)CC1 ?
Reply: -0.23

Ask: Requested read-out Growth Rate, target or system Fibroblast, entry Cc1cc(NC(=O)c2cccc(NC(=O)/C=C/CN(C)C)c2)ccc1Nc1nccc(-c2cccnc2)n1
Reply: 0.07

Ask: Record lookup: for Fibroblast, what Growth Rate belongs to CN(C(=O)c1cnn2cccnc12)c1cc2c(cc1N1CCOCC1)C(=O)N(C[C@@H](F)C(C)(C)O)C2 ?
Reply: 0.38

Ask: Entry Cc1ccccc1C1C(=O)N(C)c2cnc(Nc3ccc(S(N)(=O)=O)cc3)nc2N1C (stereo unspecified) , system Fibroblast: what Growth Rate was measured?
Reply: -1

Ask: So what Growth Rate did Cc1ccc(-n2nc(C(C)(C)C)cc2NC(=O)Nc2ccccc2F)cc1 get with Fibroblast?
Reply: -0.08

Ask: Hello, I am looking for reported Growth Rate with Fibroblast for Cn1c(SCc2ccc(C(C)(C)C)cc2)nc(N)cc1=O . Could you help?
Reply: -0.69

Further cases:
Ask: API: value(readout= Growth Rate, system= Fibroblast, query= COc1ccc(-c2csc(NC(=O)[C@H]3CCCCN3S(=O)(=O)c3ccc(C)cc3)n2)cc1 )
Reply: 0.02

Ask: API: value(readout= Growth Rate, system= Fibroblast, query= CC(C)Oc1ccc(F)c(-c2cnc(N)c(C(=O)Nc3cnccc3N3CCC[C@@H](C(=O)O)C3)n2)c1 )
Reply: -1

Ask: Growth Rate of CN(C)C/C=C/C(=O)Nc1cccc(C(=O)Nc2ccc(Nc3nccc(-c4cccnc4)n3)cc2)c1 on Fibroblast?
Reply: -1

Ask: What value of Growth Rate on Fibroblast does Cc1cc(-c2ccnc(Nc3cnn(C)c3)n2)ccc1CNC(=O)N1CC(OC(C)C)C1 have?
Reply: 0.47

Ask: API: value(readout=Growth Rate, system=Fibroblast) for record O=C(O)Cc1cc(I)c(Oc2ccc(O)c(I)c2)c(I)c1
Reply: 0.72

Ask: Give recorded Growth Rate with Fibroblast for the following compound: Cn1nc(-c2ccc(C(N)=O)cc2)c2ccccc2c1=O
Reply: 0.25

Ask: Checklist item: Growth Rate tested on Fibroblast, entry O=C(NS(=O)(=O)N1CCC1)c1cc(C2CC2)c(OCC23CC4CC(CC(C4)C2)C3)cc1F , value?
Reply: 0.24

Ask: Return Growth Rate measured with Fibroblast given this compound: COc1ncc(-c2cc(-c3ncc(CN4C[C@@H](C)O[C@@H](C)C4)o3)c3cn[nH]c3c2)cc1NS(C)(=O)=O
Reply: -0.74

Ask: Record Cc1cc(C)c(NC(=O)C2CC3CCC2C3)c(C)c1 (stereo unspecified) : what is its Growth Rate with Fibroblast?
Reply: -0.94

Ask: Form entry - test system: Fibroblast; read-out: Growth Rate; compound: COc1cc(C(=O)NC2CCN(C)CC2)ccc1Nc1ncc(C(F)(F)F)c(NCc2ccc(C)cc2N(C)S(C)(=O)=O)n1.O=CO.O=CO
Reply: -0.43

Ask: Find the measured Growth Rate: item COc1cc(OC)cc(-c2cc3cnc(N)nc3nc2NC(=O)NC(C)(C)C)c1 , target or system Fibroblast.
Reply: -0.05

Ask: Growth Rate of NC(=O)c1cc2c(-c3ccc(C(=O)NCc4ccnc(Cl)c4)s3)cccc2s1 on Fibroblast?
Reply: -1

Ask: // fetch Fibroblast Growth Rate for COc1cnccc1Nc1nc(-c2nn(Cc3c(F)cc(OCCO)cc3F)c3ccccc23)ncc1OC
Reply: -0.29

Ask: Request body: readout Growth Rate, system Fibroblast, query CC/C(=C(\c1ccccc1)c1ccc(OCCN(C)C)cc1)c1ccccc1.O=C(O)CC(O)(CC(=O)O)C(=O)O [TAMOXIFEN CITRATE] . Return the value.
Reply: 0.1

Ask: Look up Growth Rate with Fibroblast for this compound: CN(C)C/C=C/C(=O)Nc1cc2c(Nc3ccc(F)c(Cl)c3)ncnc2cc1OC[C@@H]1CCCO1
Reply: -0.42

Ask: Growth Rate of CN[C@@H](C)C(=O)N[C@H]1CN(C(=O)CC(C)C)CC[C@H]2CC[C@@H](C(=O)NC(c3ccccc3)c3ccccc3)N2C1=O on Fibroblast?
Reply: -0.46

Ask: Missing value: Growth Rate, Fibroblast, entry CO[C@H]1C[C@@H]2CC[C@@H](C)[C@@](O)(O2)C(=O)C(=O)N2CCCC[C@H]2C(=O)O[C@H]([C@H](C)C[C@@H]2CC[C@@H](O)[C@H](OC)C2)CC(=O)[C@H](C)/C=C(\C)[C@@H](O)[C@@H](OC)C(=O)[C@H](C)C[C@H](C)/C=C/C=C/C=C/1C . Fill in?
Reply: 0.43

Ask: Request - read-out Growth Rate | tested on Fibroblast | compound CC1(C)OC(=O)c2ccc(Nc3ncc(-c4nnco4)c(N[C@H](CO)c4ccccc4)n3)cc21
Reply: -1

Ask: Provide the documented Growth Rate with Fibroblast as the system for O=C1NCCc2c(OCCCCN3CCCCC3)cccc21
Reply: 0.19

Ask: Give Fibroblast Growth Rate for O=C(Nc1ccccc1Br)N[C@@H]1CCN(c2ccc(C(F)(F)F)cn2)C1
Reply: 0.4

Ask: Query for Fibroblast: what Growth Rate does the record show for COc1cc(C(C)C)c(Oc2cnc(NC(CO)CO)nc2N)cc1I ?
Reply: -0.93

----------
# System: HEK-293T
# procedureText: Incucyte cell viability with HEK293T; note: unitless GR value; below 1 slowed growth and below 0 cell loss
# Format: toxicity, cell-based
# conditionSet: human, 12 h, 10 µM, compound concentration 10 uM, replicate number 2
Assign class by Growth Rate: not lower than 0.7 means Yes; lower than 0.7 means No.

Here's what some known entries look like.
Ask: Hi, just wondering whether Cc1[nH]nc2ccc(-c3cncc(OCC(N)Cc4c[nH]c5ccccc45)c3)cc12 (stereo unspecified) shows Growth Rate of 0.7 or higher.
Reply: No

Ask: Determine whether measured Growth Rate meets or exceeds 0.7 for O=C(CNC(=O)c1ccc(-c2ccccc2)cc1)NC1CCCc2ccccc21 (stereo unspecified)
Reply: No

Ask: Is reported Growth Rate greater than or equal to 0.7 here: COc1ccccc1-n1nc(C2CC(C)(C)OC(C)(C)C2)cc1-c1ccc(Cl)cc1
Reply: No

Next:
Ask: Given the entry Cc1cccc(F)c1C(=O)Nc1cnc(-c2cc3c(cc2Cl)OC(F)(F)O3)cn1 , answer whether its Growth Rate meets or surpasses 0.7.
Reply: No

Ask: Dear colleague, could you confirm whether O=C(NCCS(=O)(=O)c1ccc(C(F)(F)F)cn1)c1ccc(Cl)cc1 has Growth Rate at or above 0.7?
Reply: Yes

Ask: State whether the measured Growth Rate reaches 0.7, counting equality as reaching it, for CN1CCc2cc(Nc3ncc(C(F)(F)F)c(NCc4cc[nH]n4)n3)ccc2C1
Reply: Yes

Ask: For this compound, is measured Growth Rate 0.7 or higher? Nc1n[nH]c2nc(-c3ccc(NS(=O)(=O)c4cccc(Cl)c4Cl)cc3)cnc12
Reply: Yes

Ask: Please check the record CCC(C)(C)NC(=NC#N)Nc1cccnc1 and state if its Growth Rate is at or above 0.7.
Reply: No

Ask: Does CCc1cnn2c(NCc3ccc[n+]([O-])c3)cc(N3CCCCC3CCO)nc12 (stereo unspecified) have a reported Growth Rate of at least 0.7?
Reply: No

Ask: Does the reported Growth Rate for Cc1noc(C)c1-c1cnc2c(-c3ccc(C(=O)O)cc3)cn([C@@H](C)c3ccccn3)c2c1 fall at or above the 0.7 mark?
Reply: Yes

Ask: Quick check: does CN(C(=O)c1cnn2cccnc12)c1cc2c(cc1N1CCOCC1)C(=O)N(C[C@@H](F)C(C)(C)O)C2 have Growth Rate greater than or equal to 0.7?
Reply: Yes

----------
# System: Fibroblast
# procedureText: Incucyte cell viability with human fibroblast; note: unitless GR value; below 1 slowed growth and below 0 cell loss
# Assay type: toxicity, cell-based
# conditionSet: 24 h, 10 µM, compound concentration 10 uM, replicate number 1
# reported Growth Rate; entries follow
Lab note: record the figure alone, no unit after it.

Reference set (5 entries):
Ask: Returns the measured Growth Rate for the input compound. Input: CC(C)NC(=O)[C@H]1CCC[C@H]1Nc1nc(Nc2ccc(CN(C)C)cc2)ncc1Br.Cl
Reply: -0.38

Ask: Fill in the blank: the reported Growth Rate of Cc1cn([C@H](C)CC#N)c(=O)c2cc(Cn3nc(C(F)F)cc3Cl)nn12 is ____.
Reply: 0.93

Ask: Sample Cc1ccc2c(N)c(C(=O)NC3CCc4cc(N5CC6CCC(C5)N6)ccc4C3)sc2n1.O=CO (stereo not given) — what was its Growth Rate?
Reply: 0.01

Ask: What does the record list as Growth Rate for COc1cc2ncnc(Nc3ccc(F)c(Cl)c3)c2cc1OCCN(C)C[C@H](C)O ?
Reply: -0.21

Ask: What does the data say about its Growth Rate? Entry: COc1ccccc1-c1cc(Nc2cccc(CS(N)(=O)=O)c2)ncn1
Reply: 0.52

Others:
Ask: # query: Growth Rate of entry Cn1cc(C(=O)O)c2ccc(N3CCC(OCc4c(-c5c(Cl)cccc5Cl)noc4C4CC4)CC3)cc21 [TERN-101]
Reply: 0.37

Ask: Recorded Growth Rate of CNS(=O)(=O)c1ccc(N(C)C)c(Nc2ncnc3cc(OC)c(OC)cc23)c1 , please.
Reply: 0.51

Ask: Any idea what its Growth Rate is? The compound is CCCN1C(=O)c2ccc(Cl)cc2Nc2ncccc21
Reply: 0.63

Ask: Growth Rate lookup needed for CCOC(=O)N1CCC(CN(Cc2ccc(Cl)cc2)Cc2ccc([N+](=O)[O-])s2)C1 (stereo not given) [SR9009] , thanks.
Reply: 0.48

Ask: Item under review: CC(C)c1nc2c(c3c1[C@@H](c1ccc(C(F)(F)F)cc1)OC31CCOCC1)[C@@H](O)CC(C)(C)C2.Cl . Reported Growth Rate?
Reply: 0.49

Ask: Please give the measured Growth Rate for this compound: Cc1c(-c2c(F)cc(C(N)=O)c3[nH]c4c(c23)CC[C@H](C(C)(C)O)C4)cccc1-n1c(=O)c2cccc(F)c2n(C)c1=O [BMS-986142]
Reply: 0.8

Ask: Suppose we examine the compound Cc1ccc(NC(=O)c2ccc3cnccc3c2)cc1C(=O)Nc1cnc(Nc2cccc(NC3CCN(C(=O)/C=C/CN(C)C)CC3)c2)nc1 ; what Growth Rate value has been reported?
Reply: -0.28

Ask: Data request, read-out Growth Rate, for CCc1cc2c(cc1-c1cccc(S(=O)(=O)F)c1)C(C)(C)c1[nH]c3cc(C#N)ccc3c1C2=O
Reply: 0.61

Ask: Reported Growth Rate for Cn1cc(NC(=O)c2ccc3nc4n(c3c2)CCCNC4=O)nc1C(=O)NC1CCCC1 : what is it?
Reply: 0.79

Ask: Which Growth Rate value belongs to Cc1nn(C)c(COc2ccc(N3CCN(S(=O)(=O)N(C)C)CC3)cc2)c1-c1cccc2c(CCCOc3cccc4ccccc34)c(C(=O)O)n(CCN3CCOCC3)c12 ?
Reply: 0.76

Ask: Value lookup for Growth Rate; key = C[C@H](CCC(=O)O)[C@H]1CC[C@H]2[C@@H]3[C@H](O)C[C@@H]4C[C@H](O)CC[C@]4(C)[C@H]3C[C@H](O)[C@]12C [CHOLIC ACID]
Reply: 0.81

Ask: Find the recorded Growth Rate belonging to CC(=O)Nc1c(F)cc(C(=O)N[C@H]2CC[C@H](O)CC2)cc1O[C@@H](C)c1ccccc1 [GSK046] and report it.
Reply: 0.71

Ask: Would you kindly share the measured Growth Rate for CN[C@@H]1CC[C@@H](c2ccc(Cl)c(Cl)c2)c2ccccc21.Cl ?
Reply: -0.06

Ask: Given the entry C/C=C1\C(=O)CC2C3CCC4=CC(=O)CC[C@]4(C)C3CC[C@]12C (stereo not given in full) , report its measured Growth Rate.
Reply: 0.81

Ask: Fill in the blank: the reported Growth Rate of N#Cc1ccc(C#CC[C@@H](C#N)NC(=O)[C@H]2CCCCN2)cc1F.O=C(O)C(F)(F)F is ____.
Reply: 0.92
